- test-summary: qHTS assay to identify small molecule antagonists of the estrogen related receptor (ERR) signaling pathway from Tox21 library - cell viability counter screen (AID 1224834); note: nearly all actives have a fitted effect of over 30% in size
- details: ERR reporter cells viability, CellTiter-Fluor, 17.5 h; series mostly up to 92.4 µM
Results filed as inconclusive are left out. Active and inactive are the calls of the source. Calls come from the whole dose curve; as a rule, active = well fitted cell-killing curve with a large enough effect in the repeat runs; inconclusive = weak or mixed curves; inactive = flat fitted curve, though single readings scatter.
Possible outcomes: active, inactive

| compound | group |
| --- | --- |
| CC(=O)C(Cl)C(=O)N(C)C (stereo not drawn) | inactive |
| O=[N+]([O-])c1cc(C(F)(F)F)c(Cl)c([N+](=O)[O-])c1Nc1ncc(C(F)(F)F)cc1Cl | active |
| CCN(CC)CCc1c[nH]c2ccccc12 | inactive |
| ClC1=C(Cl)[C@]2(Cl)[C@H]3[C@H]([C@@H]4C=C[C@H]3C4)[C@@]1(Cl)C2(Cl)Cl | inactive |
| Cc1ccc2cc3c(ccc4ccccc43)c3c2c1CC3 | inactive |
| O=c1[nH]c(Cl)c(Cl)cc1Cl | inactive |
| CO/N=C(\C(=O)OC)c1ccccc1CO/N=C(\C)c1cccc(C(F)(F)F)c1 | inactive |
| O.O.O.O.O.O.O.O=S(=O)([O-])[O-].[Co+2] | inactive |
| Oc1cccc(Cl)c1Cl | inactive |
| Cc1nn(-c2cc(NS(C)(=O)=O)c(Cl)cc2Cl)c(=O)n1C(F)F | inactive |
| COP(=S)(NC(C)C)Oc1ccc(C)cc1[N+](=O)[O-] (stereo not drawn) | inactive |
| CCC[CH2][Sn]([CH2]CCC)([CH2]CCC)[O][Sn]([CH2]CCC)([CH2]CCC)[CH2]CCC | active |
| CCNS(=O)(=O)C(F)(F)C(F)(F)C(F)(F)C(F)(F)C(F)(F)C(F)(F)C(F)(F)C(F)(F)F | inactive |
| O=C(O)CCCCCCNC1c2ccccc2CCc2ccccc21 | inactive |
| CCCCc1ccccc1 | inactive |
| c1csc(-c2ccc(-c3cccs3)s2)c1 | inactive |
| CCCC[N+]1(C)CCCC1 (tested in a mixture with another compound) | inactive |
| COC(=O)/C=C(\C)OP(=O)(OC)OC | inactive |
| CC(=O)[O][Pb]([c]1ccccc1)([c]1ccccc1)[c]1ccccc1 | active |
| Nc1cc(Cl)ccc1Cl | inactive |
| CC(Cc1ccc2c(c1)OCO2)NO (stereo not drawn) | inactive |
| Clc1ccc(C2(Cn3cncn3)OCCO2)c(Cl)c1 | inactive |
| CC(Cc1ccc(O)cc1)NCC(O)c1cc(O)cc(O)c1 (stereo not drawn) | inactive |

###

- test-summary: A CellTox Green Cytotoxicity Assay to monitor cytotoxicity in HepG2 cells - 40 hour (AID 1224879); note: nearly all actives have a fitted effect of over 40% in size
- details: CellTox Green fluorescence; series mostly up to 76.8 µM
Results filed as inconclusive are left out. Active and inactive are the calls of the source. Calls follow the shape of the dose curve; as a rule, active = well fitted activation curve with a large enough effect in the repeat runs; inconclusive = weak or mixed curves; inactive = flat fitted curve, though single readings scatter.
Possible outcomes: 1 for active, 0 for inactive

| compound | group |
| --- | --- |
| CCC(C)Nc1c([N+](=O)[O-])cc(C(C)(C)C)cc1[N+](=O)[O-] (centres undefined) | 0 |
| CCCCN(CCCC)C(=S)[S-].CCCCN(CCCC)C(=S)[S-].[Ni+2] | 0 |
| CSSC | 1 |
| COP(=S)(OC)Oc1nc(Cl)c(Cl)cc1Cl | 0 |

###

- test-summary: qHTS assay to identify small molecule agonists of the farnesoid-X-receptor (FXR) signaling pathway - cell viability counter screen (AID 743218); note: nearly all actives have a fitted effect of over 45% in size
- details: FXR-bla HEK293T viability, CellTiter-Glo luminescence, 16 h; series mostly up to 62.6 µM
Inconclusive results are not listed. Activity calls are given as the source filed them. Calls come from the whole dose curve; as a rule, active = well fitted cell-killing curve with a large enough effect in the repeat runs; inconclusive = weak or mixed curves, or effect the other way; inactive = no such curve, though single readings can be large or run the other way.
Possible outcomes: yes (1) = active, no (0) = inactive

| molecule | group |
| --- | --- |
| N#Cc1sc2c(=O)c3ccccc3c(=O)c=2sc1C#N | yes (1) |
| COP(=S)(OC)Oc1nc(Cl)c(Cl)cc1Cl | no (0) |
| N#Cc1ccc(N(CC(N)=O)CC(F)(F)F)cc1C(F)(F)F | no (0) |
| CC(=O)C(Cl)C(=O)N(C)C (configuration not stated) | no (0) |
| CC(C)[C@@H](Nc1ccc(C(F)(F)F)cc1Cl)C(=O)OC(C#N)c1cccc(Oc2ccccc2)c1 (some centres not stated) | no (0) |
| CCCCN(CCCC)C(=S)S | no (0) |
| O=C(NC(=O)c1ccccc1Cl)Nc1ccc(OC(F)(F)F)cc1 | no (0) |
| Nc1nc(N)nc(Cl)n1 | no (0) |
| O=C(Nc1ccc(F)cc1F)c1cccnc1Oc1cccc(C(F)(F)F)c1 | no (0) |
| [O]=[Cr][O][Cr]=[O] | no (0) |
| COP(=S)(NC(C)C)Oc1ccc(C)cc1[N+](=O)[O-] (configuration not stated) | no (0) |
| CCN(CC)CCc1c[nH]c2ccccc12 | no (0) |
| CCC(C)Nc1c([N+](=O)[O-])cc(C(C)(C)C)cc1[N+](=O)[O-] (configuration not stated) | no (0) |
| CCC[CH2][Sn]([CH2]CCC)([CH2]CCC)[O][Sn]([CH2]CCC)([CH2]CCC)[CH2]CCC | yes (1) |
| CCC(OC(C)=O)C(CC(C)NC)(c1ccccc1)c1ccccc1 (configuration not stated) | yes (1) |
| c1csc(-c2ccc(-c3cccs3)s2)c1 | no (0) |
| CCCCc1ccccc1 | no (0) |
| O=P(Cl)(Cl)Cl | no (0) |
| CC(=O)[O][Pb]([c]1ccccc1)([c]1ccccc1)[c]1ccccc1 | yes (1) |
| COc1nc(C)nc(NC(=O)NS(=O)(=O)c2ccccc2Cl)n1 | no (0) |
| CN(C)CCc1c[nH]c2ccccc12 | no (0) |
| CC(=O)[O-].CC(=O)[O-].CC(=O)[O-].[Cr+3] | no (0) |
| CCOP(=O)(OCC)Oc1cc(C)nc(C(C)C)n1 | no (0) |
| C=CCOC(=O)c1ccccc1N | no (0) |
| O=C(N[C@@H]1N=C(c2ccccc2F)c2cccc3c2N(CC3)C1=O)c1cc2ccccc2[nH]1 | no (0) |
| CC(Cc1ccccc1)N(C)Cc1ccco1 (configuration not stated) | no (0) |
| Cc1ccc2cc3c(ccc4ccccc43)c3c2c1CC3 | no (0) |

###

- test-summary: A CellTox Green Cytotoxicity Assay to monitor cytotoxicity in HepG2 cells - 40 hour (AID 1224879); note: nearly all actives have a fitted effect of over 40% in size
- details: CellTox Green fluorescence; series mostly up to 76.8 µM
Inconclusive results are not listed. Active and inactive are the calls of the source. Calls come from the whole dose curve; as a rule, active = well fitted activation curve with a large enough effect in the repeat runs; inconclusive = weak or mixed curves; inactive = flat fitted curve, though single readings scatter.
Possible outcomes: yes = active, no = inactive

| compound | group |
| --- | --- |
| Cc1cc2c3c(c1)C(c1ccccc1)=N[C@@H](NC(=O)c1ccncc1)C(=O)N3CC2 | no |
| NC1CCC(CC2CCC(N)CC2)CC1 (configuration not stated) | no |
| ClSC(Cl)(Cl)Cl | no |
| FC(F)C(F)(F)OCC(Cn1cncn1)c1ccc(Cl)cc1Cl (configuration not stated) | yes |
| Cc1c([N+](=O)[O-])c(C)c([N+](=O)[O-])c(C(C)(C)C)c1[N+](=O)[O-] | no |
| O=[N+]([O-])c1ccc(Cl)c(Cl)c1Cl | no |
| CCOP(=S)(NC(C)C)Oc1ccccc1C(=O)OC(C)C (configuration not stated) | yes |

###

- test-summary: qHTS assay to identify small molecule antagonists of the estrogen receptor alpha (ER-alpha) signaling pathway using the BG1 cell line - cell viability counter screen (AID 743081);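 note: compound given together with 17beta-estradiol as the ER stimulus; nearly all actives have a fitted effect of over 45% in size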
- details: BG1Luc4E2 viability, CellTiter-Fluor, 22 h; series mostly up to 70.3 µM
Results filed as inconclusive are left out. Calls of active or inactive are those of the source. The call rests on the fitted dose curve; in most records, active means well fitted cell-killing curve with a large enough effect in the repeat runs; inconclusive means weak or mixed curves, or effect the other way; inactive means flat fitted curve, though single readings scatter.

| compound | outcome |
| --- | --- |
| CCC(C)c1cccc(C(C)CC)c1O (stereo not drawn) | inactive |
| Oc1ccc([C@H]2CNCc3c2ccc(O)c3O)cc1O | inactive |
| COP(=S)(OC)Oc1nc(Cl)c(Cl)cc1Cl | inactive |

###

- test-summary: Caspase-3/7 induction in HepG2 cells by small molecules, qHTS cell viability counter screen (AID 1346981); note: nearly all actives have a fitted effect of over 30% in size
- details: CellTiter-Fluor fluorescence, 17 h; series mostly up to 92.4 µM
Inconclusive results are not listed. Active and inactive are the calls of the source. The call rests on the fitted dose curve; in most records, active means well fitted cell-killing curve with a large enough effect in the repeat runs; inconclusive means weak or mixed curves, or effect the other way; inactive means flat fitted curve, though single readings scatter.
Possible outcomes: active, inactive

| molecule | group |
| --- | --- |
| BrCCCBr | inactive |
| Nc1c(Cl)c(Cl)c(Cl)c(Cl)c1Cl | inactive |
| CC(C)N(C(=O)CCl)c1ccccc1 | active |
| COC(=O)C(C)N(C(=O)c1ccco1)c1c(C)cccc1C (stereo not given) | inactive |
| S=C=Nc1ccccc1 | inactive |
| C#CCC1=C(C)C(OC(=O)C2C(C=C(C)C)C2(C)C)CC1=O (stereo not given) | inactive |
| Nc1ccc(N=Nc2ccccc2)cc1 | active |
| NC(=O)C(Cl)Cl | inactive |
| C=CCOC(=O)c1ccccc1N | inactive |
| CCC1COC(Cn2cncn2)(c2ccc(Cl)cc2Cl)O1 (stereo not given) | inactive |
| CSSC | inactive |
| C[C@]12CC[C@H]3[C@@H](CCC4=CC(=O)CC[C@@H]43)[C@@H]1CC[C@@H]2OC(=O)CCc1ccco1 | inactive |
| Nc1ccccc1-c1ccccc1 | inactive |
| CC(=O)[O-].CC(=O)[O-].[Co+2] | inactive |
| O=C1C(Cl)=C(Cl)C(=O)C(Cl)=C1Cl | active |
| COC(=O)/C=C(\C)OP(=O)(OC)OC | inactive |
| Cc1cnc2c(C(=O)O)c(Cl)ccc2c1 | inactive |
| C[C@]12C/C(=C/O)C(=O)C[C@@H]1CC[C@@H]1[C@@H]2CC[C@@]2(C)[C@H]1CC[C@]2(C)O | inactive |
| Cc1c([N+](=O)[O-])cc2c(c1[N+](=O)[O-])C(C)(C)CC2(C)C | inactive |
| CN(C)CCc1c[nH]c2ccccc12 | inactive |

Where do the numbers come from? From PubChem BioAssay (Tox21).
